target: recombinant human PAI-1 (Homo sapiens, UniProt P05121); assay: Test Example 2: Human PAI-1 Inhibitory Activity (pH 7.4 HEPES buffer, 10 minutes incubation with two-chain tPA); type: biochemical; design: purchased Molecular Innovations, Inc; conditions: read-out: Inhibition Rate of PAI-1 Activity (%)
Sequence (P05121 24-402): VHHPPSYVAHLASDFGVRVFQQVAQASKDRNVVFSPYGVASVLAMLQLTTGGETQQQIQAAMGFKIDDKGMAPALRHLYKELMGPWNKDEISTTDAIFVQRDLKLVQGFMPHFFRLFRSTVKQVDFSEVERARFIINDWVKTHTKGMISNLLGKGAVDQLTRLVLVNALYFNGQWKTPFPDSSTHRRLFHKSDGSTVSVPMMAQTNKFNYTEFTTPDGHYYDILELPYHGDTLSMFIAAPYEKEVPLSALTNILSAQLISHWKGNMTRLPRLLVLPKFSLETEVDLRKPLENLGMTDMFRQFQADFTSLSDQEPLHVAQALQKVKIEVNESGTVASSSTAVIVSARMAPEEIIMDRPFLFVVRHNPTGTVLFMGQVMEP
Quantity name: inhibition at 10 µM (%)

A. CC(C)(C)c1ccc(N(CC(=O)O)c2ccccc2Oc2ccc(OC(F)(F)F)cc2)cc1
B. CC(C)(C)c1ccc(CN(C(=O)CCCC(=O)O)c2ccc(-c3ccc(OC(F)(F)F)cc3)cc2)cc1
Two entries are listed, A and B . Which one carries the higher inhibition at 10 µM? Refer to your chosen item by its label in the answer.
A

The values you see were collected from patent EP2272817A1.
